- measured-on: RXRα (Homo sapiens)
- Sequence (P19793 whole entry): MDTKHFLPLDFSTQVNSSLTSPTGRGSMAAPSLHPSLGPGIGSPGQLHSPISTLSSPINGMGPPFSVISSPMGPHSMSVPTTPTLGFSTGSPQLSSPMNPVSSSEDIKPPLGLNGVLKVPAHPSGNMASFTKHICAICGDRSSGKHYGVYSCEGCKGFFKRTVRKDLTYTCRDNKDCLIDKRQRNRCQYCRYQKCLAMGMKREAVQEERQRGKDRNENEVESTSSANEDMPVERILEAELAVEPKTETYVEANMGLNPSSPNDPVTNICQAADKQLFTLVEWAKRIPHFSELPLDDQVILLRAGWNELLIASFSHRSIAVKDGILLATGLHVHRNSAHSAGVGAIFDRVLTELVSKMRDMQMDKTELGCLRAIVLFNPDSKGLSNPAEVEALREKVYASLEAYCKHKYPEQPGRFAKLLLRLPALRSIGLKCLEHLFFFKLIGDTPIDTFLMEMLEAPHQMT
experimental-readout: Ki (nM)

> print(dat)
                                   compound  experimental.readout  measured.value
1  CCCOc1cc2c(cc1\C(C)=C(F)/C=C/C(C)=C/C(=O)O)C(C(C)C)=CC(C)(C)O2 [Compound 125]                    Ki               8

A = CCOc1c(\C(C)=C(F)/C=C/C(C)=C/C(=O)O)cc2c(c1Cl)OC(C)(C)C=C2C(C)C [Compound 172]
B = COc1cc2c(cc1\C(C)=C/C=C/C(C)=C/C(=O)O)C(C(C)C)=CC(C)(C)O2 [Compound 43]
C = CCOc1cc2c(cc1\C(C)=C(F)/C=C/C(C)=C/C(=O)O)C(c1ccccc1)=CC(C)(C)O2 [Compound 127]
rank_up(items): orders items by reported Ki in ascending numerical order. Respond with the label ranking, as requested.
B, A, C
(B: 6 nM, A: 10 nM, C: 97 nM)

###

- measured-on: RARβ (Homo sapiens)
- Sequence (P10826 183-417 limits assumed): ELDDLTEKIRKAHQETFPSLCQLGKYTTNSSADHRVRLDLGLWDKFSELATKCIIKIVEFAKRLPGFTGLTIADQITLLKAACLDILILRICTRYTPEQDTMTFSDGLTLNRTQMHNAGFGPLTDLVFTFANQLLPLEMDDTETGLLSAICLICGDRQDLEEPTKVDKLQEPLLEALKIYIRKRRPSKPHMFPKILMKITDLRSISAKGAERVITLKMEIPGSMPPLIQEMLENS
- test-protocol: chimeric receptor transactivation assay, RARβ
- Type: cell-based
- measurement-setup: percentage compared to the standard compound; read-out: RAR Trans. efficacy (number in parentheses) β
experimental-readout: Emax (%)

In the examples that follow, each entry is paired with its recorded Emax.
> print(dat)
                                   molecule  measured.value
1  CC/C(=C(F)/C=C/C(C)=C/C(=O)O)c1cc2c(cc1OC)OC(C)(C)C=C2C [Compound 129]              24
2  CC(/C=C/C(F)=C(/C)c1cc2c(cc1OCC1CC1)C(C)(C)CC=C2C(C)C)=C\C(=O)O [Compound A-81]              23

A = COc1cc2c(cc1\C(C)=C/C=C/C(C)=C/C(=O)O)C(C(C)C)=CC(C)(C)O2 [Compound 43]
B = CCOc1c(\C(=C(F)/C=C/C(C)=C/C(=O)O)C(C)C)cc2c(c1Br)C(C)(C)CC=C2C(C)C [Compound A-171]
Could you kindly indicate whether A or B has the higher Emax value? // return label of chosen record
A

I = CCOc1cc2c(cc1\C(CC)=C(F)/C=C/C(C)=C/C(=O)O)C(C)=CC(C)(C)O2 [Compound 132]
II = CC/C(=C(F)/C=C/C(C)=C/C(=O)O)c1cc2c(c(Cl)c1OC)OC(C)(C)C=C2C(C)C [Compound 171]
Of I and II , which carries the smaller reported Emax figure? // return label of chosen record
I

a = CCOc1cc2c(cc1\C(C)=C/C=C/C(C)=C/C(=O)O)C(C(C)(C)C)=CCC2(C)C [Compound A-17]
b = CCOc1cc2c(cc1\C(C)=C(F)/C=C/C(C)=C/C(=O)O)C(C)=CCC2(C)C
Could you kindly indicate whether a or b has the higher Emax value? // return label of chosen record
b
(b: 26%, a: 7%)

1 = CCOc1cc2c(cc1\C(=C/C=C/C(C)=C/C(=O)O)CC)C(C)=CCC2(C)C [Compound A-16]
2 = CCCOc1cc2c(cc1\C(C)=C(F)/C=C/C(C)=C/C(=O)O)C(C(C)C)=CCC2(C)C [Compound A-80]
3 = CCOc1c(\C(CC)=C(F)/C=C/C(C)=C/C(=O)O)cc2c(c1Br)C(C)(C)CC=C2C(C)C [Compound A-170]
rank_up(items): orders items by reported Emax in ascending numerical order. Respond with the label ranking, as requested.
3, 2, 1
